# experimental-target: full length human BTLA expressed in a Jurkat T cell line (human, UniProt Q7Z6A9 31-289)
# assay-comment: cell-based or functional assay
Label No if T cell reporter (NFkB signaling), % inhibition falls below 20%; label Yes in every other case.

{"columns": ["binder", "answer-label"],
 "data": [
  ["831 (antibody, V domains shown) VH: DVQLQESGPDLVKPSQSLSVTCTVTGYSITSGYSWHWIRQFPGNKLEWMGYIHYSGSTNYNPSLKSRISITRDTSKNQFFLQLSSVTTEDTATYYCASGPHRYDGVWFAYWGQGTLVTVSS VL: EIVLTQSPTTMAASPGEKITITCSASSSISSNYLHWYQQKPGFSPKLLIYRTSNLASGVPARFSGSGSGTSYSLTIGTMEAEDVATYYCQQGTNIPLTFGAGTKLEIK", "Yes"],
  ["3A9 (antibody, IgG1, V domains shown) VH: QVQLKQSGAELVRPGASVKLSCKASGYTFTDYYINWVKQRPGQGLEWIARIYPGSGNTYYNEKFKGKATLTAEKSSSTAYMQLSSLTSEDSAVYFCARGYGNSDYWGQGTTLTVSS VL: DILLTQSPAILSVSPGERVSFSCRASQSIGTRIHWYQQRTNGSPRLLIKYASESISGIPSRFSGSGSGTDFTLSINSVESEDIADYYCQQSNSWPYTFGGGTKLEIK", "Yes"],
  ["6.2 (antibody, IgG1, V domains shown) VH: EVKLVESGGGLVKPGGSLKLSCAASGFTLSSYGMSWVRQIPEKRLEWVASIRSDGNTYYPDSVKGRFIISRDNARNILYLQMSSLRSEDTAMYYCTRGGYYGSSPYYWGQGTTLTVSS VL: DIVMSQSPSSLPVSVGEKISMTCKSSQSLLYSSNQKNYLAWYQQKPGQSPKLLIYWASTRDSGVPDRFIGSGSGTDFTLTINSVKAEDLAVYYCQQYYNYLTFGAGTKLELK", "Yes"],
  ["21C7 (antibody, IgG1, V domains shown) VH: QIQLQQSGPELVKPGASVKISCKASGYAFSSSWMNWVKKRPGKGLEWIGRIYPGDGDANYNGKFKGKATLTADKSSSTAYMQLSSLTSEDSAVYFCAGEGHYYGSGYRWYLDVWGTGTTVTVSS VL: DIQMTQSPASLSVSVGETVTITCRASENIYSNLAWYQQKQGKSPQLLVYAATNLADGVPSRFSGSGSGTQYSLKINSLQSEDFGSYYCQHFRGAPFTFGSGTKLEIK", "Yes"],
  ["4H4 (antibody, IgG1, V domains shown) VH: QVQLQQSGAELARPGASVKLSCKASGYTFTSYGISWVKQRTGQGLEWIGEIYPRSGNTYYNEKFKGKATLTADKSSSTAYMELRSLTSEDSAVYFCARRRGAGDGFDYWGQGTTLTVSS VL: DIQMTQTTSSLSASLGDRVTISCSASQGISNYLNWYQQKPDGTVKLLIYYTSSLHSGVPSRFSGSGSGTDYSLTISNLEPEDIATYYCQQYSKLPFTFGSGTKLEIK", "Yes"],
  ["14D4 (antibody, IgG1, V domains shown) VH: QVQLQQPGAELVKPRASVKLSCKASGYTFTSYWMHWVKQRPGQGLEWIGMIHPNNGIPNYNEKFKSKATLTVDKSSTTAYMQLSSLTSEDSAVYHCAREGYYGSEGYFDVWGTGTTVTVSS VL: QIVLTQSPAIMSASPGEKVTMTCSASSSISYIHWYQQKPGTSPKRWIYDTSKLASGVPARFSGSGSGTSYSLTISSMEAEDAATYYCHQRSTYPYTFGGGTKLEIK", "No"],
  ["4B1 (antibody, IgG1, V domains shown) VH: QVQLQQSGAELARPGASVRLSCKASGYTFTSYGLIWLKQRTGQGLEWIGEIYPRSGSTYYNEWFKGKATLTADKSSNTAFMELRSLTSEDSAVYFCARRRGTGDGFDYWGQGTILTVSS VL: DIQMTQTTSSLSASLGDRVTISCSASQGISNYLNWYQQKPDGTVKLLIYYTSSLHSGVPSRFSGSGSGTDYSLTISNLEPEDIATYYCQQYIELPFTFGSGTKLEIK", "Yes"],
  ["24H7 (antibody, IgG1, V domains shown) VH: QVQLQQSGAELVRPGASVTLSCKASGYTFTDYEIHWVKQTLVHGLEWIGPIDPDTGNTAYNQNLKGKAILTADKSSSTAYMELRSLTSEDSAVYYCTRGGYDSDWGFAYWGQGTLVTVSA VL: DIVMTQATPSVPVTPGESVSISCRSSKSLLHSNGNTFLFWFLQRPGQSPQLLIYRMSDLASGVPDRFSGSGSGTAFTLRISRVEAEDVGIYYCMQHLEYPFTFGSGTKLEIK", "Yes"]
]}

Exercise: Is reported T cell reporter (NFkB signaling), % inhibition greater than or equal to 20% here: 26B1 (antibody, IgG1, V domains shown) VH: EVQLQQSGPVLVKPGASVKMSCKASGYTFTDYYLNWVKQSHGKSLEWIGLIDPYNGGSSCNQKFKGKATLTVDKSSSTAYMDLNSLTSEDSAVYYCARGNAMDYWGQGTSVTVSS VL: DIVMTQSHKFMSTSVGDRVSITCKASQDVSTAVAWYQEKPGQSPKLLIYWASTRHTGVPDRFTGSGSGTDYILNISSVQAEDLALYYCQQHYIIPYMFGGGTKLEIK
Key: Yes

Exercise: Is T cell reporter (NFkB signaling), % inhibition for 12F11 (antibody, IgG1, V domains shown) VH: EVQLQQSGPELVKPGASVKISCKASGYTFTDYYMNWVKQSHGKSLEWIGDINPNNGGTSYNQKFKGKATLTVDKSSSTAYMELRSLTSEDSAVYYCARWRQLRSDYWGQGTTLTVSS VL: DIQMTQSPASQSASLGESVTITCLASQTIGTWLAWYQQKPGKSPQLLIYAATSLADGVPSRFSGSGSGTKFSFKISSLQAEDFVSYYCQQLYSTPLTFGAGTKLELK at or above 20%?
Key: Yes

Exercise: Has 15C6 (antibody, IgG1, V domains shown) VH: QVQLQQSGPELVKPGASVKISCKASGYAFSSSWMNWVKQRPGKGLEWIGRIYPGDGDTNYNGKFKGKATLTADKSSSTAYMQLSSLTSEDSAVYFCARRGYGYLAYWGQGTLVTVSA VL: DIVMTQSHKFMSTSVGDRVSITCKASQDVSTAVAWYQQKPGQSPKLLIYSASYRYTGVPDRFTGSGSGTDFTFTISSVQAEDLAVYYCQQHYSTPYTFGGGTKLEIK a recorded T cell reporter (NFkB signaling), % inhibition greater than or equal to 20%?
Key: No

# credit: patent US20220177589A1
